Where do these numbers come from? They come from patent US4293694A.

- test summary: Acute toxicity
- study conditions: rat, in vivo, iv; rats, dd strain, 18 to 22 g, fasted 12 hours; read-out: LD50 (50% lethal dose), i.v.
- Protocol: Further, the acute toxicity of the compounds of the present invention having the formula (I) was determined by intravenous administration (i.v.) and oral administration (p.o.) in 5 to 6 groups of rats (dd strain; body weight, 18 to 22 g; 10 rats in each group) which had been fasted for 12 hours prior to the test.
endpoint name: LD50 (mg/kg)
One number for each entry, in mg/kg.

// worked examples, LD50 included
compound	LD50 (mg/kg)
NNC(=O)c1cn2c3c(cc(F)cc3c1=O)C1CCCCC12 (stereo not drawn)	100
CCOC(=O)c1cn2c3c(cc(F)cc3c1=O)C1CCCCC12 (stereo not drawn)	80

Field: next compound
Query: Please look up its LD50: COc1cc2c3c(c1)c(=O)c(C(=O)O)cn3C1CCCCC21 (stereo not drawn)
Response: 130
